Attribution: patent US11312705B2

target: adenosine A2a receptor (A2aR) (Homo sapiens (Human)); assay: Inhibition of adenosine A2a receptor cAMP signaling pathway (HTRF cAMP, CHO-K1/A2aR cells); type: cell-based; conditions: Table 3, ethyl carbazole 20 nM
Sequence (P29274 whole entry): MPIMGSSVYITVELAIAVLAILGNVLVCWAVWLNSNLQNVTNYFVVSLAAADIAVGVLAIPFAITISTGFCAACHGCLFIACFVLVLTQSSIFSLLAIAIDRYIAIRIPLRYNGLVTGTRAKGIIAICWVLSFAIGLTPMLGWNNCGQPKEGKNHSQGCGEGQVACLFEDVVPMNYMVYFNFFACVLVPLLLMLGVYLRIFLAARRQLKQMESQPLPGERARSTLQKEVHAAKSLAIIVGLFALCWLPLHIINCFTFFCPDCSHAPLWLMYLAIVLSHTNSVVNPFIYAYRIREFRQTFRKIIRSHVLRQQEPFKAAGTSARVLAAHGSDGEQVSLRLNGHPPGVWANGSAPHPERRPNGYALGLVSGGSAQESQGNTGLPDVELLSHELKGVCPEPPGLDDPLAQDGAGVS
Entries and their IC50 values follow.
REPORTED_ENDPOINT: IC50

{"columns": ["TEST_SMILES", "RESULT"],
 "data": [
  ["Cc1cc(-c2c(-c3ccccc3F)nc(N)n3cnnc23)cc(C)n1", "0.96 nM"],
  ["Cc1cc(-c2c(-c3ccc(F)cc3)nc(N)n3cnnc23)cc(C(F)(F)F)n1", "0.63 nM"],
  ["Cc1cc(-c2c(-c3ccc(F)cc3)nc(N)n3cnnc23)cc(Cl)n1", "0.17 nM"],
  ["Cc1cc(-c2c(-c3ccccc3F)nc(N)n3cnnc23)cc(CF)n1", "2.59 nM"],
  ["Cc1cc(-c2c(-c3ccccc3)nc(N)n3cnnc23)cc(Cl)n1", "0.08 nM"],
  ["Cc1cc(-c2c(-c3ccccc3F)nc(N)n3cnnc23)cc(C(F)F)n1", "1.68 nM"],
  ["Cc1cc(-c2c(-c3ccc(F)cc3F)nc(N)n3cnnc23)cc(C(F)(F)F)n1", "0.75 nM"],
  ["Cc1cc(-c2c(-c3cccc(F)c3)nc(N)n3cnnc23)cc(C(F)(F)F)n1", "0.55 nM"],
  ["Nc1nc(-c2ccccc2)c(-c2ccc3[nH]ncc3c2)c2nncn12", "0.26 nM"],
  ["Cc1cc(-c2c(-c3ccc(C)o3)nc(N)n3cnnc23)cc(C(F)(F)F)n1", "0.18 nM"],
  ["Cc1cc(-c2c(-c3ccccc3)nc(N)n3cnnc23)cc(C2CC2)n1", "0.77 nM"],
  ["Cc1cc(-c2c(-c3ccc(Cl)cc3F)nc(N)n3cnnc23)cc(C(F)F)n1", "3.05 nM"],
  ["Cc1cc(-c2c(-c3ccc(Cl)cc3F)nc(N)n3cnnc23)cc(Cl)n1", "3.55 nM"],
  ["Cc1cc(-c2c(-c3ccc(F)cc3F)nc(N)n3cnnc23)cc(Cl)n1", "2.04 nM"],
  ["Cc1cc(-c2c(-c3ccccc3F)nc(N)n3cnnc23)cc(C(F)(F)F)n1", "1.77 nM"],
  ["Cc1cc(-c2c(-c3ccc(F)cc3F)nc(N)n3cnnc23)cc(C(F)F)n1", "2.33 nM"],
  ["Cc1cc(-c2c(-c3ccccc3)nc(N)n3cnnc23)cc(C(F)(F)F)n1", "0.23 nM"],
  ["Cc1cc(-c2c(-c3ccc(F)cc3)nc(N)n3cnnc23)cc(CF)n1", "1.04 nM"]
]}

* * *

target: adenosine A2a receptor (A2aR) (Homo sapiens (Human)); assay: Inhibition of adenosine A2a receptor cAMP signaling pathway (HTRF cAMP, CHO-K1/A2aR cells); format: cell-based; conditions: Table 1, ethyl carbazole 20 nM
IC50 strictly under 0.6 nM means 1 (yes); at 0.6 nM or over means 0 (no).

{"columns": ["TEST_SMILES", "CLASS_NAME"],
 "data": [
  ["Cc1cc(-c2c(-c3ccc(F)cc3)nc(N)n3ccnc23)cc(C)n1", "0 (no)"],
  ["Cc1cc(-c2c(-c3ccc(Cl)cc3F)nc(N)n3cnnc23)cc(C(F)F)n1", "0 (no)"],
  ["Cc1cc(-c2c(-c3ccc(Cl)cc3)nc(N)n3cnnc23)cc(Cl)n1", "0 (no)"],
  ["Cc1cc(-c2c(-c3ccc(Cl)cc3)nc(N)n3cnnc23)cc(C)n1", "1 (yes)"],
  ["Cc1ccc(-c2nc(N)n3cnnc3c2-c2cc(C)nc(Cl)c2)cc1", "1 (yes)"],
  ["Cc1cc(-c2c(-c3ccc(F)cc3)nc(N)n3cnnc23)cc(C(F)F)n1", "1 (yes)"],
  ["Nc1nc(-c2ccccc2)c(-c2ccnc(Cl)c2)c2nncn12", "0 (no)"],
  ["Cc1cc(-c2c(-c3ccccc3)nc(N)n3cc(C)nc23)cc(C)n1", "0 (no)"],
  ["Cc1cc(-c2c(-c3ccccc3)nc(N)n3ccnc23)cc(Cl)n1", "1 (yes)"],
  ["Cc1cc(-c2c(-c3ccc(Cl)cc3)nc(N)n3cnnc23)cc(CF)n1", "1 (yes)"],
  ["Cc1cc(-c2c(-c3ccc(F)cc3)nc(N)n3cnnc23)cc(C(F)(F)F)n1", "0 (no)"],
  ["Nc1nc(-c2ccccc2)c(-c2cc(F)c3ncccc3c2)c2nncn12", "1 (yes)"],
  ["Cc1cc(-c2c(-c3ccc(F)cc3)nc(N)n3cnnc23)cc(C)n1", "1 (yes)"],
  ["Cc1cc(-c2c(-c3ccc(F)cc3F)nc(N)n3cnnc23)cc(C)n1", "0 (no)"],
  ["Cc1cc(-c2c(-c3ccccc3)nc(N)n3cnnc23)cc(C2CC2)n1", "0 (no)"],
  ["Cc1cc(-c2c(-c3ccccc3)nc(N)n3ccnc23)cc(C(F)(F)F)n1", "0 (no)"],
  ["Nc1nc(-c2ccccc2)c(-c2ccncc2)c2nncn12", "0 (no)"],
  ["Cc1cc(-c2c(-c3ccccc3F)nc(N)n3cnnc23)cc(C(F)(F)F)n1", "0 (no)"]
]}
